# System: A549/ATCC NSCLC
# EXPERIMENTAL_DETAILS: NCI-60 one-dose screen, 48 h
# TEST_PARAMETERS: 10 µM unless noted
The panel holds about 83,000 compounds, 20% with a hit somewhere; the sample as a whole holds those more often. Activity calls are given as the source filed them. Rule for the calls: active = growth percent below 10; inactive = the rest.
Hi there, use one of these labels in your reply, thanks! active, inactive

Incoming: Identify the outcome logged in this assay for the molecule shown: `CN(C)CCNc1ccc2ncc(C#Cc3cncc(C(=O)Nc4ccc(CN5CCN(C)CC5)c(C(F)(F)F)c4)c3)n2n1`
Outgoing: inactive

Incoming: What about this molecule? `COc1ccc(NC(=O)CCCCCCNC(=O)C(O)(O)C(F)(F)F)cc1`
Outgoing: inactive

Incoming: What about this molecule? `COc1cccc2c1[C@H](OC)[C@]13O[C@@]1(C2=O)[C@H](O)[C@H](C)[C@@](O)(C(=O)[C@@H]1O[C@H]1C)[C@@H]3O`
Outgoing: active

----------
Consider the following molecules; for each one, report its growth.
# Tested on: MOLT-4 leukemia
# EXPERIMENTAL_DETAILS: NCI-60 one-dose screen, 48 h (100 = growth as untreated, 0 = no growth, -100 = all killed)
# TEST_PARAMETERS: 10 µM unless noted
# Protocol: Growth inhibition of the MOLT-4 human tumor cell line is measured as a screen for anti-cancer activity. Cells are grown in 96 well plates and exposed to the test compound for 48 hours. Compounds are tested at a single concentration, which is 10^-5 M for most compounds. The reported endpoint is percent growth (GI% or GIPRCNT), where numbers from 0 - 100% represent growth inhibition, and numbers from -100% - 0 represent cell death. For example, a value of 40 represents 60% growth inhibition. […]
Compounds without any hit were thinned out: in the full panel of roughly 83,000, 20% have a hit.
Expressed in %, but write only the number.

Incoming: Consider the molecule shown here: `CCCCCCN1C=C/C(=C\C(=O)n2ccc3ccccc32)c2ccccc21` What is its recorded growth?
Outgoing: 62

Incoming: What about this molecule? `N#C/C(=C\c1ccc(-c2ccc(Cl)cc2)o1)C(=O)Nc1ncc(Cc2ccc(Br)cc2)s1`
Outgoing: 55.8

Incoming: What about this molecule? `O=C(CCCCCC/C=C\c1csc(Br)n1)NO`
Outgoing: 63.7

Incoming: What about this molecule? `COc1ccc2c(c1)c(-c1nn3cc(-c4ccncc4)nc3s1)cn2C`
Outgoing: 47.2

Incoming: What about this molecule? `NS(=O)(=O)c1nnc(/N=C/c2c(O)[nH]c3ccccc23)s1`
Outgoing: 126

Incoming: What about this molecule? `COc1ccc(C(=O)c2c(N)c(C#N)cn2-c2ccc(Cl)cc2Cl)cc1`
Outgoing: 90.7

Incoming: What about this molecule? `COc1ccc2c(c1)c(/C=N/Nc1ccnc3cc(Cl)ccc13)cn2C`
Outgoing: -49.6

Incoming: What about this molecule? `CC(C)(C)OC(=O)NCc1ccc(CNc2c([N+](=O)[O-])cnc3ccccc23)cc1`
Outgoing: 34.4

Incoming: What about this molecule? `CC(C)(C)OC(=O)Nc1ccc(-c2cccc(Oc3ccc4nnc(Cl)n4n3)c2)cc1`
Outgoing: 46.3

Incoming: What about this molecule? CCOC(=O)C1=C(C)NC(C)=C(C(=O)OC(C)C)C1c1cccc(C#N)c1 (configuration not stated)
Outgoing: 88.8

Incoming: What about this molecule? `COc1ccc(N2CCN(C3=C(Cl)C(=O)c4ncccc4C3=O)CC2)cc1`
Outgoing: 4.55

Incoming: What about this molecule? `CC[C@H](CC[C@@H](C)[C@H]1CC[C@H]2[C@@H]3CC(=O)C4=CC(=O)/C(=C/c5ccc([N+](=O)[O-])cc5)C[C@]4(C)[C@H]3CC[C@]12C)C(C)C`
Outgoing: 84.3
